Source: patent US9556159B2

- SYSTEM_UNDER_TEST: Recombinant human renin (Homo sapiens)
- Sequence (P00797 67-406): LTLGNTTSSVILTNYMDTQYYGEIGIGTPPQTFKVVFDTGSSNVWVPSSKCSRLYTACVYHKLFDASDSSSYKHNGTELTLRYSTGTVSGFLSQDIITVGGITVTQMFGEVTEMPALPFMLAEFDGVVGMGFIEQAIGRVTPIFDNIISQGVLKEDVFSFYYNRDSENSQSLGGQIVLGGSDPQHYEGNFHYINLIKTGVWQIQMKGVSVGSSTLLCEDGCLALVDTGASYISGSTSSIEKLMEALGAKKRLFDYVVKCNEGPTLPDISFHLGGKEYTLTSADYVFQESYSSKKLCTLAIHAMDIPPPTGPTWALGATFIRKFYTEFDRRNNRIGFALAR
- ASSAY_INFO: Inhibitory activity against human renin (fluorogenic peptide substrate)
- Type: biochemical
- EXPERIMENTAL_CONDITIONS: 37° C. for 1 hour, read-out: IC50
PROPERTY_LABEL: log10 of IC50 (log10 of the value in pM)

>>> print(df.to_string())
                                 cpd_smiles                       system_under_test  property_label  observed
0  COCCCn1cc(C(C)C)c2cnc([C@@H](C)N(C(=O)[C@H]3CNCCO3)C3CC3)nc21  Recombinant human renin (Homo sapiens)   log10 of IC50      3.15
1  COC(=O)NCCCc1cc(OC)cc([C@@H](C)N(C(=O)[C@H]2CNCCO2)C2CC2)n1  Recombinant human renin (Homo sapiens)   log10 of IC50      3.68
2  COC(=O)NCCCn1cc([C@@H](C)N(C(=O)[C@H]2CNCCO2)C2CC2)c2ncccc21  Recombinant human renin (Homo sapiens)   log10 of IC50      2.78
3  COC(=O)NCCCn1nc([C@@H](C)N(C(=O)[C@H]2CNCCO2)C2CC2)c2ccc(OC)cc21  Recombinant human renin (Homo sapiens)   log10 of IC50      2.85
4  CCOC(=O)NCCCn1nc([C@@H](C)N(C(=O)[C@H]2CNCCO2)C2CC2)c2ccc(C)nc21  Recombinant human renin (Homo sapiens)   log10 of IC50      3.20
5  COC(=O)NCCCn1cc([C@@H](C)N(C(=O)[C@H]2CNCCO2)C2CC2)c2cc(F)cnc21  Recombinant human renin (Homo sapiens)   log10 of IC50      2.48
6  COC(=O)NCCCc1cc([C@@H](C)N(C(=O)[C@H]2CNC[C@@H](C(=O)OC)O2)C2CC2)sc1-c1ccccc1  Recombinant human renin (Homo sapiens)   log10 of IC50      2.78
